tested on: M. haemolytica; experiment: MIC, M. haemolytica strains; format: cell-based; conditions: Mannheimia haemolytica, M. haemolytica 46571, bovine efficacy challenge strain
Quick reference: MIC of the listed items.

{"columns": ["compound", "MIC"],
 "data": [
  ["CC[C@H]1OC(=O)[C@H](C)[C@@H](O)[C@H](C)[C@@H](O[C@@H]2O[C@H](C)C[C@H](N(C)S(=O)(=O)c3ccccc3)[C@H]2Oc2ccc(OC)cc2)[C@](C)(O)C[C@@H](C)CN[C@H](C)[C@@H](O)[C@]1(C)O [Example A-9]", "> 64 µg/mL"]
]}

Now look at this one.
Query block: Query: MIC; subject: CC[C@H]1OC(=O)[C@H](C)[C@@H](O[C@H]2C[C@@](C)(OC)[C@](O)(CN3CCCCC3)[C@H](C)O2)[C@H](C)[C@@H](O[C@@H]2O[C@H](C)C[C@H](N(C)S(=O)(=O)Nc3ccc(C(F)(F)F)cc3)[C@H]2O)[C@](C)(O)C[C@@H](C)CN[C@H](C)[C@@H](O)[C@]1(C)O [Example C-11]
Result block: > 64 µg/mL

----------
tested on: IL-1β; experiment: Whole bovine blood assay, LPS-induced IL-1β (inhibition / overstimulation); assay type: cell-based; conditions: drug concentration giving overstimulation (OS) of LPS-induced IL-1β, top concentration 250 μM
measured quantity: minimal effective concentration (µM)
Please give a number only; it is taken to be in µM.

Below are worked cases with known answers.
{"columns": ["compound smiles", "minimal effective concentration, µM"],
 "data": [
  ["CCCNC[C@]1(O)[C@H](C)O[C@@H](O[C@H]2[C@H](C)[C@@H](O[C@@H]3O[C@H](C)C[C@H](N(C)S(=O)(=O)c4ccc(Cl)cc4)[C@H]3Oc3ccc(F)cc3)[C@](C)(O)C[C@@H](C)CN[C@H](C)[C@@H](O)[C@](C)(O)[C@@H](CC)OC(=O)[C@@H]2C)C[C@@]1(C)OC", 3],
  ["CCCNC[C@]1(O)[C@H](C)O[C@@H](O[C@H]2[C@H](C)[C@@H](O[C@@H]3O[C@H](C)C[C@H](N(C)S(=O)(=O)N(C)C)[C@H]3O)[C@](C)(O)C[C@@H](C)CN[C@H](C)[C@@H](O)[C@](C)(O)[C@@H](CC)OC(=O)[C@@H]2C)C[C@@]1(C)OC", 97]
]}

Alright, here's another compound for you.
Query block: For `CC[C@H]1OC(=O)[C@H](C)[C@@H](O[C@H]2C[C@@](C)(OC)[C@](O)(CN3CCC3)[C@H](C)O2)[C@H](C)[C@@H](O[C@@H]2O[C@H](C)C[C@H](N(C)S(=O)(=O)c3ccc(Cl)cc3)[C@H]2O)[C@](C)(O)C[C@@H](C)CN[C@H](C)[C@@H](O)[C@]1(C)O` , what is its reported minimal effective concentration?
Result block: 6

----------
tested on: M. haemolytica; assay: MIC, M. haemolytica strains; format: cell-based; conditions: Mannheimia haemolytica, M. haemolytica 33396
measured quantity: MIC

{"columns": ["compound", "reported value"],
 "data": [
  ["CCCNC[C@]1(O)[C@H](C)O[C@@H](O[C@H]2[C@H](C)[C@@H](O[C@@H]3O[C@H](C)C[C@H](N(C)S(=O)(=O)Nc4ccc(C(F)(F)F)cc4)[C@H]3O)[C@](C)(O)C[C@@H](C)CN[C@H](C)[C@@H](O)[C@](C)(O)[C@@H](CC)OC(=O)[C@@H]2C)C[C@@]1(C)OC [Example B-50]", "> 64 µg/mL"]
]}

Note: attention shifts to another entry.
Query block: Quick one: MIC of CC[C@H]1OC(=O)[C@H](C)[C@@H](O[C@H]2C[C@@](C)(OC)[C@](O)(CN3CCCCC3)[C@H](C)O2)[C@H](C)[C@@H](O[C@@H]2O[C@H](C)C[C@H](N(C)S(=O)(=O)Nc3ccc(C(F)(F)F)cc3)[C@H]2O)[C@](C)(O)C[C@@H](C)CN[C@H](C)[C@@H](O)[C@]1(C)O [Example C-11] ?
Result block: > 64 µg/mL
